# Study system: rat brain farnesyl protein transferase (PFT) (Rattus norvegicus, UniProt Q02293+Q04631)
# Construct: 40-fold purified rat brain farnesyl protein transferase; from tissue; host or cells: rat brain
# Sequence (Q02293 whole entry, one chain of several): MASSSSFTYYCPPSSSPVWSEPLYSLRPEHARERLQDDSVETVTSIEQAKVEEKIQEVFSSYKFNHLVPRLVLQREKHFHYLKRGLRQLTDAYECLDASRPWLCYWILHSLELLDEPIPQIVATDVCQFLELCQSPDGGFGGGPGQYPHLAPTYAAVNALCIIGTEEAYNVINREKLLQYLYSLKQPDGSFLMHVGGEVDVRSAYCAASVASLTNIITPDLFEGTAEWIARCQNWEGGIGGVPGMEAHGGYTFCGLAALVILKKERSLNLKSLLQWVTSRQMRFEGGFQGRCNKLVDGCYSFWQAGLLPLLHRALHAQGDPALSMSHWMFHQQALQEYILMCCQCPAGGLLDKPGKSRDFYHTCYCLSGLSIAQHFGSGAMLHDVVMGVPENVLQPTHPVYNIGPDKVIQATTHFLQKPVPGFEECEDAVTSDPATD
# Assay comment: PFT inhibitory activity assay (radiolabeled farnesyl pyrophosphate, biotinyl peptide, streptavidin beads)
# Type: biochemical
# Test parameters: 40-fold purified rat brain enzyme; 0.12 μM [3H]FPP, 0.1 μM biotinyl-Ahe-Tyr-Lys-Cys-Val-Ile-Met; 37° C., 30 minutes; read-out: IC50 (μM) against PFT
# Experimental: The PFT inhibitory activity of compounds of Formula I was assayed in 30 mM potassium phosphate buffer, pH 7.4, containing 7 mM DTT, 1.2 mM MgCl2, 0.1 mM leupeptin, 0.1 mM pepstatin and 0.2 mM phenylmethylsulfonyl fluoride. […] After allowing the plate to settle for 30 minutes at room temperature, radioactivity was quantitated on a microBeta counter (model 1450, Wallec). […]
Peptide text beside a SMILES is read from it. * marks the point of attachment. Cbz = O=C(OCc1ccccc1)*; Bn = c1ccc(C*)cc1
Provide the reported IC50 of each item.
Give bare numbers, in µM.

Please supply IC50 for each of the following items, keeping them in order.
1. O=C(NC(Cc1cnc[nH]1)C(=O)NC(Cc1ccc(OCc2ccccc2)cc1)C(=O)NCCSCc1ccccc1)OCc1ccccc1 (centres unmarked)
2. COC(=O)[C@H](COCc1ccccc1)NC(=O)[C@H](Cc1ccc(OCc2ccccc2)cc1)NC(=O)[C@H](Cc1c[nH]cn1)NC(=O)OCc1ccccc1 [Example 6] (Cbz-His-Tyr(Bn)-Ser(Bn)-OMe)
3. O=C(Nc1cccc2ccccc12)N[C@H](Cc1c[nH]cn1)C(=O)N[C@@H](Cc1ccc(OCc2ccccc2)cc1)C(=O)NCCCCc1ccccc1
4. O=C(CCc1ccccc1)NC(Cc1c[nH]cn1)C(=O)NC(Cc1ccc(OCc2ccccc2)cc1)C(=O)NCc1ccccc1 (centres unmarked)
5. O=C(N[C@@H](Cc1c[nH]cn1)C(=O)N[C@@H](Cc1ccc(OCc2ccccc2)cc1)C(=O)N[C@@H](COCc1ccccc1)C(=O)O)OCc1ccccc1 [Example 7] (Cbz-His-Tyr(Bn)-Ser(Bn)-OH)

1. 1.5
2. 0.42
3. 20
4. 1.6
5. 0.26
